- STUDY SYSTEM: full-length HTRA1 (HTRA1 (full)) (human, UniProt Q92743 23-480)
- Sequence (Q92743 23-480): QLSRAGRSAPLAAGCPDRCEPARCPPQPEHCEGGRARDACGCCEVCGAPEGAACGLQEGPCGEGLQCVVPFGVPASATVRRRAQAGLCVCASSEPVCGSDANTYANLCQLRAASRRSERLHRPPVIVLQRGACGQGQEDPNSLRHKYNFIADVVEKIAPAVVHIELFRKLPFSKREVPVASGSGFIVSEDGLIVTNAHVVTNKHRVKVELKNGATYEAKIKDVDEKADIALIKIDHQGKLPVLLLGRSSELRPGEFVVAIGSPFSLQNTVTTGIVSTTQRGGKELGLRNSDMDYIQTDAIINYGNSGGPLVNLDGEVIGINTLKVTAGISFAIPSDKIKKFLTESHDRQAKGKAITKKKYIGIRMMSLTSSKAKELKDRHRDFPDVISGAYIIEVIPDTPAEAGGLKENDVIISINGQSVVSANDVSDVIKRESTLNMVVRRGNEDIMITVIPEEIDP
- EXPERIMENTAL DETAILS: cell-based or functional assay
RECORDED ENDPOINT: IC50 (nM) for HTRA1 (full); decomposition rate of substrate peptide H2-Opt

Reference set, count: 3
Give IC50 (nM) for HTRA1 (full); decomposition rate of substrate peptide H2-Opt for peptide derivative H322AT (designed binder) DPQFGLFSKYRTPNCSQHEGMACYALYEPVCGSDMSTYANECTLCMKIREGGHNIKIIRNGPCGG
25

Note IC50 (nM) for HTRA1 (full); decomposition rate of substrate peptide H2-Opt for the binder shown: peptide derivative H321AT (designed binder) DPQFGLFSKYRTPNCSDFDGMACYAFYEPVCGSDMSTYANECTLCMKIREGGHNIKIIRNGPCGG
18

Fill in reported IC50 (nM) for HTRA1 (full); decomposition rate of substrate peptide H2-Opt for this entry: peptide derivative H308AT (designed binder) DPQFGLFSKYRTPNCSDHAGMACVALYEPVCGSDMSTYANECTLCMKIREGGHNIKIIRNGPCGG
31

A: peptide H321 (designed binder) DPQFGLFSKYRTPNCSDFDGMACYAFYEPVCGSDMSTYMNECALCMKIREGGHNIKIIRNGPCGG
B: peptide H322 (designed binder) DPQFGLFSKYRTPNCSQHEGMACYALYEPVCGSDMSTYVNECALCMKIREGGHNIKIIRNGPCGG
Quick check, higher IC50 (nM) for HTRA1 (full); decomposition rate of substrate peptide H2-Opt between A and B ? Response format: the label of the selected entry.
A
(A: 29 nM, B: 17 nM)
